Target: 1-phosphatidylinositol 3-phosphate 5-kinase (Homo sapiens, UniProt Q9Y2I7)
Sequence (Q9Y2I7 whole entry): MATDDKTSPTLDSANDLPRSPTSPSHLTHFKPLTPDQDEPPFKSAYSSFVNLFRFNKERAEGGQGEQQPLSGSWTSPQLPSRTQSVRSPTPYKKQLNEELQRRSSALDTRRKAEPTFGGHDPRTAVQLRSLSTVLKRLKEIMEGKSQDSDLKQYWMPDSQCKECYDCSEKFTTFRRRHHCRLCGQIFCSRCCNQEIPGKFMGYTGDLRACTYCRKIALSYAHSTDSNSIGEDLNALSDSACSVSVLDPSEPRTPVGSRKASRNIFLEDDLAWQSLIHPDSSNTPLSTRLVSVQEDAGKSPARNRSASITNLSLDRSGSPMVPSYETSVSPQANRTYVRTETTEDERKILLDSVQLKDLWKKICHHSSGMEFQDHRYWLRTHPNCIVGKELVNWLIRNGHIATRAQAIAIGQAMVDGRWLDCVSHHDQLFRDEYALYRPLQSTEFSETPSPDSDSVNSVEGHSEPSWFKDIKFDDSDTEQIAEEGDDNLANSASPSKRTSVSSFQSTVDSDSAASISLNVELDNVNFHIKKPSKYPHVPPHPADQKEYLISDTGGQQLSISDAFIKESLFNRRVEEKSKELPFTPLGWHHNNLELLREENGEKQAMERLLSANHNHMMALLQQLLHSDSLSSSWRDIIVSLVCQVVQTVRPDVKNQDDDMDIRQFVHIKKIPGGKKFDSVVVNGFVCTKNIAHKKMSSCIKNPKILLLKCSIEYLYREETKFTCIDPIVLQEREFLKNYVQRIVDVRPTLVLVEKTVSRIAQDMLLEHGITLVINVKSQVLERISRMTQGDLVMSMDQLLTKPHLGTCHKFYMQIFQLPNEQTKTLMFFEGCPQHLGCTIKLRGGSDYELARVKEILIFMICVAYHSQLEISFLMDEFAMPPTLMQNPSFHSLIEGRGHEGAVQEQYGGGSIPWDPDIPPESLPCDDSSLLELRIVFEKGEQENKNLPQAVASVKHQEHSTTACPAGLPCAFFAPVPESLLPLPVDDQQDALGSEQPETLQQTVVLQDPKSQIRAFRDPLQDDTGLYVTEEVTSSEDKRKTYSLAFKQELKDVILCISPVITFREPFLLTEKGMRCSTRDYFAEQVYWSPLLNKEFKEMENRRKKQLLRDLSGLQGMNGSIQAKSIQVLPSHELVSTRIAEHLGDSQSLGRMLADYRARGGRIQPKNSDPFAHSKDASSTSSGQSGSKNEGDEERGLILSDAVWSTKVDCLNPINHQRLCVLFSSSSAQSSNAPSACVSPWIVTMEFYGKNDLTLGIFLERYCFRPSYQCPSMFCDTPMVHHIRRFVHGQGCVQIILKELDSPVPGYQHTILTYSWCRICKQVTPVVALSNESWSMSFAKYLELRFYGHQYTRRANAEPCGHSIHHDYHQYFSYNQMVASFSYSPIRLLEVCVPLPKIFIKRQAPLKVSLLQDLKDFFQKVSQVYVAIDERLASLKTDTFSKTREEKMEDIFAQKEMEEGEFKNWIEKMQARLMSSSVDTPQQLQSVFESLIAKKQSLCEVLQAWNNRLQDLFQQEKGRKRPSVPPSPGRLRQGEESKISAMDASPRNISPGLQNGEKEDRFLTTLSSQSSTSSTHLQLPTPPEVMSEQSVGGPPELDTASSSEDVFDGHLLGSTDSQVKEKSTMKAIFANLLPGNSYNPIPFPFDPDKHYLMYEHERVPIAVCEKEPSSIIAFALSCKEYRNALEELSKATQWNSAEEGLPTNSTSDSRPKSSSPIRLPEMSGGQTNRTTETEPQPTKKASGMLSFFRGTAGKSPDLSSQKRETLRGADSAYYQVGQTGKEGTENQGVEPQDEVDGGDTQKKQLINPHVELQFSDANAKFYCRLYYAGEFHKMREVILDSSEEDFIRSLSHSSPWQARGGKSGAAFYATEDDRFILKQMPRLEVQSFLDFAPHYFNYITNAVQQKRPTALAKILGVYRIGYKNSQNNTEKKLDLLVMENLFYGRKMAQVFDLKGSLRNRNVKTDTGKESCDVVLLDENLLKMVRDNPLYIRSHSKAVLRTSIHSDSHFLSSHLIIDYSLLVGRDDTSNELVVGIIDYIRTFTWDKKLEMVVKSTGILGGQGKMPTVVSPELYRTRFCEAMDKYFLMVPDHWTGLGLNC
Experiment: Inhibition of human GST tagged PIKFYVE (1493 to end residues) expressed in baculovirus-infected Sf9 cells using PI(3)P:PS as substrate incubated for 60 mins in presence of ATP by ADP-Glo assay
MEASURED PROPERTY: IC50 (nM)
One number for each entry, in nM.

| CHEMICAL STRUCTURE | SYSTEM | MEASURED PROPERTY | DATA VALUE |
| --- | --- | --- | --- |
| Cn1cncc1C#Cc1ccc2[nH]c3c(c2c1)-c1nc(N)ncc1CC3 | 1-phosphatidylinositol 3-phosphate 5-kinase (Homo sapiens, UniProt Q9Y2I7) | IC50 | 77 |
| Nc1ncc2c(n1)-c1c([nH]c3ccc(-c4ccc(F)cc4)cc13)CCC2 | 1-phosphatidylinositol 3-phosphate 5-kinase (Homo sapiens, UniProt Q9Y2I7) | IC50 | 9.3 |
| CN(C)CC#Cc1ccc2[nH]c3c(c2c1)-c1nc(N)ncc1CCCC3 | 1-phosphatidylinositol 3-phosphate 5-kinase (Homo sapiens, UniProt Q9Y2I7) | IC50 | 430 |
| Cn1cncc1C#Cc1ccc2[nH]c3c(c2c1)-c1nc(N)ncc1CCCC3 | 1-phosphatidylinositol 3-phosphate 5-kinase (Homo sapiens, UniProt Q9Y2I7) | IC50 | 290 |

For each listed entry, give its IC50.
1. Nc1ncc2c(n1)-c1c([nH]c3ccc(C#CC4CC4)cc13)CCCC2
2. Nc1ncc2c(n1)-c1c([nH]c3ccc(-c4ccc(F)cc4)cc13)CC2
3. Cn1cc(-c2ccc3[nH]c4c(c3c2)-c2nc(N)ncc2CC4)cn1
4. Nc1ncc2c(n1)-c1c([nH]c3ccc(C#Cc4ccncc4)cc13)CCCC2

Output:
1: 75; 2: 8.2; 3: 34; 4: 580

----------
Test: Microsomal stability in CD-1 mouse liver microsomal assessed as parent compound remaining preincubated for 5 mins followed by NADPH addition measured after 30 mins by LC-TOFMS
Format: ADME, subcellular
Settings: liver microsomes, time 35 min, read-out: Stability
MEASURED PROPERTY: remaining at 0.5 h (%)
One number for each entry, in %.

Task: Note down remaining at 0.5 h recorded for CN(C)CC#Cc1ccc2[nH]c3c(c2c1)-c1nc(N)ncc1CCC3
Output: 12.6

----------
Exercise: for every item that follows, state its recorded IC50.
Biological target: 1-phosphatidylinositol 3-phosphate 5-kinase (Homo sapiens, UniProt Q9Y2I7)
Assay: Inhibition of PIKFYVE in HEK293 cells by NanoBRET assay
Format: cell-based
One number for each entry, in nM.

Example cases with answers are listed next.
| COMPOUND | IC50 [nM] |
| --- | --- |
| Nc1ncc2c(n1)-c1c([nH]c3ccc(-c4ccc(F)cc4)cc13)CCCC2 | 2560 |
| Nc1ncc2c(n1)-c1c([nH]c3ccc(C#CC4CC4)cc13)CCCC2 | 700 |

Consider the following items and state reported IC50 for each.
1. Nc1ncc2c(n1)-c1c([nH]c3ccc(C#CC4CC4)cc13)CC2
2. Cn1cc(-c2ccc3[nH]c4c(c3c2)-c2nc(N)ncc2CCC4)cn1
3. CN(C)CC#Cc1ccc2[nH]c3c(c2c1)-c1nc(N)ncc1CC3
4. Nc1ncc2c(n1)-c1c([nH]c3ccc(C#Cc4ccncc4)cc13)CCCC2
5. CC(C)C(O)C#Cc1ccc2[nH]c3c(c2c1)-c1nc(N)ncc1CCC3 (stereo not given)
6. Nc1ncc2c(n1)-c1c([nH]c3ccc(-c4ccc(F)cc4)cc13)CCC2
7. CN(C)CC#Cc1ccc2[nH]c3c(c2c1)-c1nc(N)ncc1CCCC3

Output:
1. 300
2. 1560
3. 123
4. 5290
5. 45.7
6. 11.4
7. 683

----------
Molecular target: 1-phosphatidylinositol 3-phosphate 5-kinase (Homo sapiens, UniProt Q9Y2I7)
Assay: Inhibition of PIKFYVE in HEK293 cells by NanoBRET assay
Format: cell-based
IC50 vs 900 nM: less than gives Condition met; not less than gives Condition not met.

# count of solved cases: 3
| MOLECULE | CLASS NAME |
| --- | --- |
| CC(C)C(O)C#Cc1ccc2[nH]c3c(c2c1)-c1nc(N)ncc1CC3 (stereo not drawn) | Condition not met |
| Nc1ncc2c(n1)-c1c([nH]c3ccc(C#Cc4ccncc4)cc13)CC2 | Condition not met |
| Nc1ncc2c(n1)-c1c([nH]c3ccc(-c4ccc(F)cc4)cc13)CC2 | Condition met |

Task: Check if IC50 falls below 900 nM for Cn1cc(-c2ccc3[nH]c4c(c3c2)-c2nc(N)ncc2CC4)cn1 .
Output: Condition not met

Task: Bench note: check whether CC(C)(O)C#Cc1ccc2[nH]c3c(c2c1)-c1nc(N)ncc1CCCC3 shows IC50 below 900 nM
Output: Condition not met

Task: Please let me know if Cn1cncc1C#Cc1ccc2[nH]c3c(c2c1)-c1nc(N)ncc1CC3 shows IC50 below 900 nM.
Output: Condition not met

Task: Check if IC50 falls below 900 nM for CC(C)(O)C#Cc1ccc2[nH]c3c(c2c1)-c1nc(N)ncc1CC3 .
Output: Condition met

----------
Target: UniProt:Q9Y2I7
Assay: Inhibition of human GST tagged PIKFYVE (1493 to end residues) expressed in baculovirus-infected Sf9 cells using PI(3)P:PS as substrate incubated for 60 mins in presence of ATP by ADP-Glo assay
I'd appreciate it if you could supply IC50 values for the items below.
One number for each entry, in nM.

Example entries and their recorded answers appear below.
| CHEMICAL STRUCTURE | VALUE UNIT | IC50 |
| --- | --- | --- |
| CC(C)(O)C#Cc1ccc2[nH]c3c(c2c1)-c1nc(N)ncc1CCCC3 | nM | 61 |
| Cn1cc(-c2ccc3[nH]c4c(c3c2)-c2nc(N)ncc2CCC4)cn1 | nM | 26 |

// moving on: another record for IC50
Task: Specify IC50 for Nc1ncc2c(n1)-c1c([nH]c3ccc(C#Cc4ccncc4)cc13)CCC2 and stop.
Output: 22
